- targetSystem: prolyl endopeptidase (Elizabethkingia meningoseptica)
- Sequence (P27028 21-705): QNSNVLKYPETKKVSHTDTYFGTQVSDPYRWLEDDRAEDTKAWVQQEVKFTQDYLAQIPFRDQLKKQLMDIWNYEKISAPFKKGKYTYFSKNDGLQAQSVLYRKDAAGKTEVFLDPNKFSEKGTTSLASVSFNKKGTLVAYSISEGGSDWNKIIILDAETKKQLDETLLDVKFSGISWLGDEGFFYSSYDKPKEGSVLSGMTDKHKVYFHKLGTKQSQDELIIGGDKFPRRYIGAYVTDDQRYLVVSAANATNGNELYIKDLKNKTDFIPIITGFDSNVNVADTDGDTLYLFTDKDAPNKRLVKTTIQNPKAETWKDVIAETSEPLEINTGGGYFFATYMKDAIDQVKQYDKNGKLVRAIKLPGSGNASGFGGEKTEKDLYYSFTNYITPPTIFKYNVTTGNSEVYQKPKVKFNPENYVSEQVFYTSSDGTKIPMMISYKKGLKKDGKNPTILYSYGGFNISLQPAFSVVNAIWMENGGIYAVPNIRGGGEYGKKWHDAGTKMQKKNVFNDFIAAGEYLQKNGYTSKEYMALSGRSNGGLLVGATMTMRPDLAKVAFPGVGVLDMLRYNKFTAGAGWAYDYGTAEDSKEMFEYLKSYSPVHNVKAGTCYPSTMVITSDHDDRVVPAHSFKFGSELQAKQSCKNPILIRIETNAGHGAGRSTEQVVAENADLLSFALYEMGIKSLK
- method: In vitro prolyl endopeptidase inhibitory assay (spectrophotometric, Z-Gly-Pro-4-nitroanilide substrate)
- Assay type: biochemical
- runParameters: triplicate, ± SEM; read-out: (IC50 ± µM) in vitro prolyl endo peptidase inhibitory activity
- Method: Prolyl endopeptidase inhibitory activity was measured using a slightly modified version of Yoshimoto et al. spectrophotometric technique. […] Now 20 µL of the substrate solution, Z-Gly-Pro-4-nitroanilide (0.4 mM in 1,4-dioxane), was added, and a 96-well plate reader was used to continually monitor the change in absorbance at 410 nm for 30 min (SpectraMax-384, Molecular Devices, CA, USA). […]
measureName: IC50 (µM)
Quick note: give the figure in µM, leave out the unit.

**Q:** Identify the reported IC50 for the following entry. O=C(Cn1cc(Cn2c3ccccc3c3cc(-c4ccc5c(c4)c4ccccc4n5Cc4cn(CC(=O)c5ccc(Cl)cc5)nn4)ccc32)nn1)c1ccc(Cl)cc1 [Compound 7]
**A:** 26.3

**Q:** Return the recorded IC50 value; entry: O=C(Cn1cc(Cn2c3ccccc3c3cc(-c4ccc5c(c4)c4ccccc4n5Cc4cn(CC(=O)c5ccc(Br)cc5)nn4)ccc32)nn1)c1ccc(Br)cc1 [Compound 8]
**A:** 28.3

**Q:** Give a short answer stating reported IC50 for COc1ccc(C(=O)Cn2cc(Cn3c4ccccc4c4cc(-c5ccc6c(c5)c5ccccc5n6Cc5cn(CC(=O)c6ccc(OC)cc6)nn5)ccc43)nn2)cc1 [Compound 9] .
**A:** 31.1
